Molecular target: Zur (Paracoccus denitrificans) (UniProt A1B9K9)
Sequence: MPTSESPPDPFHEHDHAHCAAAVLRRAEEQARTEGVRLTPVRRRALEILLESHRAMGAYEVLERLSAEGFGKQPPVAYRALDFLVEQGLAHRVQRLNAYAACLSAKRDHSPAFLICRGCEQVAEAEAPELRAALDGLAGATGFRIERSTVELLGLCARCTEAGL
Experiment: EMSA
Settings: EMSA: 10 mM Tris pH 8.0, 10 mM NaCl, 100 mM K-glutamate, 50 mM KCl, 1 mM DTT, 1.07 ug/ml BSA, 0.1 uM DNA, 0-20 uM Zur, 25 uM ZnCl2, 100 uM EDTA; 30 min room …
assay-endpoint: binding

Q: What value of binding has been recorded for this entry: CGGCAAGGACAAGGGAAGAAGGTCGGATCATGGCGAGACTCACTTGCGGAAACGCCAAGGTTATTTATGTTATATCGTAACCCGTCAAGCAAAAATGTAACGATATAACATCATGCCCACTTCGGAATCCCCGCCTGACCCGTTTCACG (double strand) [zur/znuA promoter (149 bp)]
Ans: binds

Q: What value of binding has been recorded for this entry: AAGAGAGGGTTGAGCCTGCCCGGTAAAGGGCCGGGCGGGATGATCCGCCAGGCGCATGGGCGAAGCCCTCTTGCATCCCCGGGTGGGTAATATAATAACATAACAAAATCTCCGAGGATAACGCTCATGCTCTGCAAACTGCTCGCTT (double strand) [pden1341 promoter]
Ans: binds

Q: What value of binding has been recorded for this entry: AATCACAAAACCGGCGCCTCGGCATTTCCCCGCTGATGCTTTGCCCTCTCGCCGCGGGTCCTGCGGCTTTTCGGACGACCGGCGCGGCATGGCTTGCCGTTCCGGTTTAGTAATGTAATAACATCACCAAAATATCGAGTCCGCTATCCAGTGATGCCCAGAACC (double strand) [aztA promoter]
Ans: binds
